ASSAY_REMARKS: Stability assay in 25% TIDE 2X detergent with DTPA (residual Abz-AGLA-Nba protease activity)
Format: physicochemical
PROTOCOL_CONDITIONS: 60 min at 32°C; variant residual AGLA activity divided by wild-type residual activity
METRIC: PI (relative stability), 25% TIDE 2X with DTPA
Lab note: jot the number down without any unit.

### Prompt Look up PI (relative stability), 25% TIDE 2X with DTPA: G196H: single-substitution thermolysin variant (SEQ ID NO:3 numbering) (protein, listed as Geobacillus caldoproteolyticus) ITGTSTVGVGRGVLGDQKNINTTYSTYYYLQDNTRGNGIFTYDAKYRTTLPGSLWADADNQFFASYDAPAVDAHYYAGVTYDYYKNVHNRLSYDGNNAAIRSSVHYSQGYNNAFWNGSQMVYGDGDGQTFIPLSGGIDVVAHELTHAVTDYTAGLIYQNESGAINEAISDIFGTLVEFYANKNPDWEIGEDVYTPHISGDSLRSMSDPAKYGDPDHYSKRYTGTQDNGGVHINSGIINKAAYLISQGGTHYGVSVVGIGRDKLGKIFYRALTQYLTPTSNFSQLRAAAVQSATDLYGSTSQEVASVKQAFDAVGVK
### Response 1.19
